Would you kindly list EC50 for each of these compounds?
Target Or System: hEP2/Gqs5 (Homo sapiens, UniProt P43116)
Construct: expressed in transfected cells
Sequence (P43116 whole entry): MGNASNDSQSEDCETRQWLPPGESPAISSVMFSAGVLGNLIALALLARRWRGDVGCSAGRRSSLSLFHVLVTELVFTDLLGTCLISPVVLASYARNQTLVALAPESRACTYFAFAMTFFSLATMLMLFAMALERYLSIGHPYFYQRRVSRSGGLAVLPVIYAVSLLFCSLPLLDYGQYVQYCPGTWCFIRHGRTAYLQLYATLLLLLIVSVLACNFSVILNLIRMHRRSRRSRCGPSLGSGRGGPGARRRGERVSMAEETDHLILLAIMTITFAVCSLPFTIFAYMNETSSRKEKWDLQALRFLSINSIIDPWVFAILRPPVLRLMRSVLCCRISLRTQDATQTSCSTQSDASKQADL
Assay Text: FLIPR calcium signal, EP2
Format: cell-based
Condition Summary: HEK-293(EBNA), value outside parentheses, read-out: Ca2+ Signal-EC50 (nM) EP2
# output: number + unit

Check out these entries, answers already filled in.
Compound	Target Or System	EC50
CCCCC(O)C(C)(C)c1ccc([C@@H]2[C@@H](C/C=C\CCCC(=O)O)[C@H](Cl)C[C@H]2O)cc1 (mixture of isomers)	hEP2/Gqs5 (Homo sapiens, UniProt P43116)	164 nM
CCCCCC(O)c1ccc([C@@H]2[C@@H](C/C=C\CCCC(=O)O)[C@H](Cl)C[C@H]2O)cc1 (single isomer, unassigned) [Entry 13]	hEP2/Gqs5 (Homo sapiens, UniProt P43116)	11 nM

We next turn to a different compound, shown below.
Which EC50 value belongs to CCCCCC(O)c1ccc([C@@H]2[C@@H](C/C=C\CCCC(=O)OC)[C@H](Cl)C[C@H]2O)cc1 (mixture of isomers) ?
3960 nM
